Data origin, for the record: patent US8415351B2

Test system: genotype 1a-H77 subgenomic replicon cell line
Procedure text: microbe, parasite or virus in culture
Type: cell-based, HCV
Measurement parameters: read-out: EC50 1a

Molecule: COc1c(/C=C\c2ccc(NS(C)(=O)=O)cc2)cc(N2CCC(=O)NC2=O)cc1C(C)(C)C [IA-L1-1.20]
EC50: 10 to 100 nM

====

Parameter pIC50: see the listing below.
Target system: HCV polymerase 1B (Δ21 NS5B, BK) (Hepatitis C virus genotype 1b, UniProt P26663)
Construct: 20 to 50 nM Δ21 NS5B
Sequence (P26663 2420-2989, stated change not applied): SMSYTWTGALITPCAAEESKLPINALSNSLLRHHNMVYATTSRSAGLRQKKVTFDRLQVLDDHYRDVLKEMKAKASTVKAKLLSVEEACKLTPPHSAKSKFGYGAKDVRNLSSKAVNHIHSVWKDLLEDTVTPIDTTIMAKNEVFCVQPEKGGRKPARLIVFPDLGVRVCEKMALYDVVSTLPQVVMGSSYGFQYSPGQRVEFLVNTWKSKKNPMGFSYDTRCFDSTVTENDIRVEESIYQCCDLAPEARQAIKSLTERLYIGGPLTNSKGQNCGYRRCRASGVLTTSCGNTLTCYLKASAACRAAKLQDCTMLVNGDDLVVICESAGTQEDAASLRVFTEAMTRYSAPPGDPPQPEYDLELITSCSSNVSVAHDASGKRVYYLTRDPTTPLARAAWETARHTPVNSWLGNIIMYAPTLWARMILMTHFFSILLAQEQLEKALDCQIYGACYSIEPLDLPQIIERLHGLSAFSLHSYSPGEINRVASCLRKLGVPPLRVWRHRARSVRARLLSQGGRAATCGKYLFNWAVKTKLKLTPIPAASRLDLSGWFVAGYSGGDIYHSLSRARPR
Procedure text: biochemical
Measurement parameters: HCV polymerase 1b; read-out: IC50 1b
pIC50: −log10 of the molar value.

Smiles str: COc1c(C(=O)N[C@H]2CC[C@H](NS(C)(=O)=O)CC2)cc(N2CCC(=O)NC2=O)cc1C(C)(C)C
pIC50: < 6.00
--
Smiles str: COc1cc(NS(C)(=O)=O)ccc1/C=C/c1cc(N2CCC(=O)NC2=O)cc(C(C)(C)C)c1OC
pIC50: 7.00 to 8.00
--
Smiles str: CC(C)(C)c1cc(N2CCC(=O)NC2=O)cc(NC(=O)c2ccc([N+](=O)[O-])cc2)c1O
pIC50: < 6.00
